# Study Target: IRAK4 (Homo sapiens)
# Construct: endogenous in cells; host or cells: THP-1 cells
# Sequence (Q9NWZ3 whole entry): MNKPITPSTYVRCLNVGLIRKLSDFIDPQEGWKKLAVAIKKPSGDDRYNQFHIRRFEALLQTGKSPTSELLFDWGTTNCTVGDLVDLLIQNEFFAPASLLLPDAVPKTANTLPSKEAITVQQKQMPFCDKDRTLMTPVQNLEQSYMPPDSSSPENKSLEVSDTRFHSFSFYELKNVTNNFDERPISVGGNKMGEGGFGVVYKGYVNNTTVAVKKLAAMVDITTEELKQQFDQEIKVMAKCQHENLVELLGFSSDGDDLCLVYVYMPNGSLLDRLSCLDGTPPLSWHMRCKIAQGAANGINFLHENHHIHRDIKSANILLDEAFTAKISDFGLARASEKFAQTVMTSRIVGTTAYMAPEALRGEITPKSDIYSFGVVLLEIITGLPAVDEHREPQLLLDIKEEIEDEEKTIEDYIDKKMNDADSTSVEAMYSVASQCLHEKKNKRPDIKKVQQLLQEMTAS
# Procedure Details: ALE THP1 HTRF (Advanced Lipoxidation End Product THP1 Homogeneous Time Resolved Fluorescence)
# Type: cell-based
# Condition Summary: THP1 cells
Endpoint Label: ALE THP1 HTRF YMIN (%)

- Molecule: "N#Cc1cnc2c(cnn2-c2cc(NCC(F)(F)F)c(C(=O)N[C@H]3CC[C@H](CCN4CCN(c5ccc(C6CCC(=O)NC6=O)cc5)CC4)CC3)cn2)c1 (some centres unmarked)"
  Endpoint Label: "ALE THP1 HTRF YMIN"
  Obs Value: 8.7
- Molecule: "CN(C[C@H]1CC[C@H](NC(=O)c2cnc(-n3ncc4cc(C#N)cnc43)cc2NC2CC2)CC1)C1CCN(c2ccc3c(c2)CN(C2CCC(=O)NC2=O)C3=O)CC1 (some centres unmarked)"
  Endpoint Label: "ALE THP1 HTRF YMIN"
  Obs Value: 24.5

[a] N#Cc1cnc2c(cnn2-c2cc(NCC3CC3)c(C(=O)N[C@H]3CC[C@H](CCN4CCN(c5ccc(C6CCC(=O)NC6=O)cc5)CC4)CC3)cn2)c1 (some centres unmarked)
[b] C[C@H](C#N)Nc1cc(-n2ncc3cc(C#N)c(N)nc32)ncc1C(=O)N[C@H]1CC[C@H](CCN2CCN(c3ccc(C4CCC(=O)NC4=O)cc3)C(C(F)(F)F)C2)CC1 (some centres unmarked) [P-181]
Input line: Please indicate which entry, a or b , has the lower recorded ALE THP1 HTRF YMIN value. Refer to your chosen entry by its label in the reply.
Output line: a
